system: TK-10 renal; test: NCI-60 one-dose screen, 48 h (100 = growth as untreated, 0 = no growth, -100 = all killed); conditions: 10 µM unless noted
Compounds without any hit were thinned out: in the full panel of roughly 83,000, 20% have a hit.
In this section we review reported growth values for a set of compounds.
The figure you give is taken to be in %; do not add the unit.

A selection of reference data follows.
| compound | unit annotation | growth |
| --- | --- | --- |
| COc1cccc(-c2nn(-c3ccccc3)cc2-c2ccnc(NCCNS(=O)(=O)c3cccc(F)c3)c2)c1 | % | 36.7 |
| COc1ccc(/C=C/C(=O)NCC(C)O)cc1 (centres undefined) | % | 89.1 |
| C[C@@H]1CCCCCCCCC[C@H](O)C(=O)C[C@@H](SC[C@@H](O)C(=O)O)C(=O)O1 | % | 95.2 |

Consider the additional compound presented here.
Prompt: For TK-10 renal, provide growth of "C=C(C)[C@@H]1CC[C@]2(CN)CC[C@]3(C)[C@H](CC[C@@H]4[C@@](C)(CCCN)[C@H](C(=C)C)CC[C@]43C)[C@@H]12" please.
Completion: 119

----------
system: NCI-H322M lung; assay: NCI-60 one-dose screen, 48 h (100 = growth as untreated, 0 = no growth, -100 = all killed); details: 10 µM unless noted
Compounds without any hit were thinned out: in the full panel of roughly 83,000, 20% have a hit. Activity calls are given as the source filed them. How the source made its calls: active means growth percent below 10; inactive means the rest.
Recorded growth for the following compounds

Reference set, count: 5
| compound | readout type | recorded measurement |
| --- | --- | --- |
| COc1cccc(-c2nn(-c3ccccc3)cc2-c2ccnc(NCCCN)c2)c1 | growth | 78.5% (inactive) |
| COc1cc2c(cc1-c1c(C)noc1C)ncc1nc(C3CC3)n([C@H](C)COC(F)F)c12 | growth | 47.8% (inactive) |
| Brc1cnc2[nH]cc(-c3nnc(-c4ccccc4)o3)c2c1 | growth | 77.5% (inactive) |
| O=c1c(CNc2ccc(S(=O)(=O)Nc3nccs3)cc2)coc2ccccc12 | growth | 87.6% (inactive) |
| C=C(C)[C@@H]1CC[C@]2(C(=O)NNC(=O)c3cccnc3)CC[C@]3(C)[C@H](CC[C@@H]4[C@@]5(C)CCCNC(C)(C)[C@@H]5CC[C@]43C)[C@@H]12 | growth | 101% (inactive) |

Prompt: GET /values?readout=growth&item= "O=Cc1nc2ccccc2[nH]1"
Completion: 110% (inactive)

Prompt: Value lookup for growth; key = "Cn1c2ccccc2c2c3c(c4c5cccnc5[nH]c4c21)C(=O)N(O)C3=O"
Completion: 62.6% (inactive)

Prompt: Bench note: what growth did "Cc1ccc2c(c1)c1nc3cc(C)c(C)cc3nc1n2CCN(C)C" show?
Completion: 16.3% (inactive)

Prompt: Value lookup for growth; key = "COc1cc(-c2c(C#N)c(-c3cccs3)nc3c2c(-c2ccccc2)nn3-c2ccccc2)ccc1O"
Completion: 96.6% (inactive)

Prompt: Item COC(=O)C(N)CSC(c1ccccc1)(c1ccccc1)c1ccccc1 (stereo not given) has what recorded growth?
Completion: 9.37% (active)

----------
tested on: OVCAR-3 ovarian; assay: NCI-60 one-dose screen, 48 h; conditions: 10 µM unless noted
The panel holds about 83,000 compounds, 20% with a hit somewhere; the sample as a whole holds those more often. The source made the active and inactive calls. The calls were made as follows: active = growth percent below 10; inactive = the rest.
Returns: one label drawn from Y = active, N = inactive

Answered examples (3):
| compound | system under test | class |
| --- | --- | --- |
| Brc1ccc2c(c1)c(-c1nc(-c3c[nH]c4ncccc34)cs1)cn2CCCN1CCCCC1 | OVCAR-3 ovarian | Y |
| Nc1c(C(=O)Nc2c(Cl)cccc2Cl)sc2nc3c(cc12)C(=O)CCC3 | OVCAR-3 ovarian | N |
| O=S(=O)(NCCNc1cc(-c2cn(-c3ccccc3)nc2-c2cccc(O)c2)ccn1)c1cccc(F)c1 | OVCAR-3 ovarian | N |

Prompt: What outcome does the record of this test show for "Fc1ccc(Nc2nnc(-c3ccc(Cl)cc3)o2)cc1" ?
Completion: N

----------
system: SK-MEL-5 melanoma; assay: NCI-60 one-dose screen, 48 h; details: 10 µM unless noted
This is part of a sample that, as a whole, favours compounds with a hit. Of some 83,000 tested, about 20% had one in any assay. Activity calls are given as the source filed them. Rule for the calls: active = growth percent below 10; inactive = the rest.
Response enum: active, inactive

Would you please look over these solved cases?
| mol | class |
| --- | --- |
| Cn1cc(-c2csc(-c3cn(CCCN4CCCCC4)c4ccc(Br)cc34)n2)c2cccnc21 | active |
| N#Cc1c(-c2ccco2)nc2c(c(-c3ccccc3)nn2-c2ccccc2)c1-c1ccc(O)cc1 | inactive |
| Fc1ccc2[nH]cc(-c3nc(-c4c[nH]c5ncccc45)cs3)c2c1 | inactive |
| CC1(C)[C@@H](O)CC[C@]2(C)[C@H]3CC[C@@H]4[C@H]5[C@H](C(=O)/C=C/c6ccc(C(F)(F)F)cc6)CC[C@]5(CO)CC[C@@]4(C)[C@]3(C)CC[C@@H]12 | inactive |
| COc1ccc2[nH]cc(-c3nc(-c4c[nH]c5ncccc45)cs3)c2c1 | inactive |

Lab note: next compound to report on.
Prompt: Dear all, I need the recorded test outcome for "COc1ccccc1CNc1nc(N)nc2[nH]c3ccc(O)cc3c12" , thank you.
Completion: inactive

----------
tested on: M14 melanoma; assay: NCI-60 one-dose screen, 48 h (100 = growth as untreated, 0 = no growth, -100 = all killed); conditions: 10 µM unless noted
About 83,000 compounds went through this panel and 20% of them were active in at least one assay; those are over-represented in the sample as a whole. The source made the active and inactive calls. Rule for the calls: active = growth percent below 10; inactive = the rest.
The following compounds are listed with their measured growth values.

Prompt: Any idea what its growth is? The compound is "Fc1ccc(Nc2nc(Nc3ccc(-c4nc5ccccc5[nH]4)cc3)nc(N3CCCC3)n2)cc1"
Completion: -58.3% (active)

Prompt: Item CC(=O)OC(C)COc1ccc(-c2ccccc2)cc1 (centres undefined) has what recorded growth?
Completion: 92.1% (inactive)

Prompt: Which growth is listed for "COc1ccc(-c2nc(Nc3ccc(-c4nc5ccccc5[nH]4)cc3)nc(N3CCOCC3)n2)cc1" ?
Completion: -7.64% (active)

Prompt: I am curious: what growth value has been reported for "COc1ccc(C(=O)c2cc(OC)c(OC)c(OC)c2)cc1/C=C/C(=O)c1cc(OC)c(OC)c(OC)c1" ?
Completion: 81.4% (inactive)

Prompt: Given the compound "CC(=O)O[C@@H]1CCN2C(=O)N(C)c3ccccc3[C@@H]2C1" , what is its reported growth?
Completion: 101% (inactive)

Prompt: Any idea what growth was measured for "O=[N+]([O-])c1ccc(N/N=C(\C(=N/Nc2ccc([N+](=O)[O-])cc2[N+](=O)[O-])c2ccccc2)c2ccccc2)c([N+](=O)[O-])c1" ?
Completion: 100% (inactive)

----------
test system: MDA-MB-435 melanoma; test: NCI-60 one-dose screen, 48 h (100 = growth as untreated, 0 = no growth, -100 = all killed); settings: 10 µM unless noted
Compounds without any hit were thinned out: in the full panel of roughly 83,000, 20% have a hit.
readout type: growth (%)
Numeric only. Scale: %

Some solved cases for reference:
| mol | unit annotation | recorded measurement |
| --- | --- | --- |
| CSc1ccc(N(C)c2nc(C)nc3c2CCC3)cc1 | % | -12.8 |
| Brc1ccc2c(c1)c(-c1nc(-c3c[nH]c4ncccc34)cs1)cn2CCCN1CCCCC1 | % | -84 |
| CC(=O)Cc1nsc(NC(=O)c2ccoc2COc2ccccc2)n1 | % | 107 |
| O=C1/C(=C\c2ccc(Br)o2)SC(=S)N1CCc1ccc(O)cc1 | % | 71.3 |
| c1ccc2[nH]c(-c3cc(-c4ccc5c(c4)OCO5)n[nH]3)nc2c1 | % | 58 |
| COc1ccc(/C=C(\C#N)c2cc3ccccc3n2C(C)=O)cc1 | % | 9.69 |

Prompt: # query: growth of entry "C[C@@H](Oc1ccc(C(=O)NS(=O)(=O)C(C)(C)C)cc1C(F)(F)F)c1ccc(Oc2ccccc2)cn1"
Completion: -50.1

Prompt: I have this molecule here, "CC1(C)NCCC[C@]2(C)[C@H]3CC[C@@H]4[C@H]5[C@H](C(=O)/C=C/c6ccccn6)CC[C@]5(CO)CC[C@@]4(C)[C@]3(C)CC[C@@H]12" , and I need its recorded growth.
Completion: 57.3

Prompt: Which growth is reported for this molecule? "COc1ccc(/C=C2\N=C(c3ccccc3)N(c3cc(OC)c(OC)cc3C(=O)N3N=C(C)CC3=O)C2=O)cc1"
Completion: 93.4

----------
test system: HCT-116 colon; test: NCI-60 one-dose screen, 48 h (100 = growth as untreated, 0 = no growth, -100 = all killed); conditions: 10 µM unless noted
This is part of a sample that, as a whole, favours compounds with a hit. Of some 83,000 tested, about 20% had one in any assay.
Catalogue of growth values
State the answer as a number, implicitly in %.

| mol | readout type | recorded measurement |
| --- | --- | --- |
| C=C(C)[C@@H]1CC[C@]2(C=NCCCNCCCCNCCCN)CC[C@]3(C)[C@H](CC[C@@H]4[C@@]5(C)CCCNC(C)(C)[C@@H]5CC[C@]43C)[C@@H]12 | growth | 77.7 |
| COc1ccc(-c2nc(Nc3ccc(-c4nc5ccccc5[nH]4)cc3)nc(N3CCOCC3)n2)cc1 | growth | 4.8 |
| COCCNC1=C(Cl)C(=O)c2ccccc2C1=O | growth | 86.8 |
| Brc1ccc2[nH]cc(-c3nc(-c4c[nH]c5ncccc45)cs3)c2c1 | growth | 17.5 |
| COc1ccc(-c2cc(/C=C/C(=O)c3ccc(OC)c(OC)c3)[nH]n2)cc1 | growth | -40.7 |

Prompt: Name the reported growth value associated with the molecule "O=[N+]([O-])c1cccc(/C=N\Nc2ccccc2)c1"
Completion: 58.3

Prompt: Please give the measured growth for this molecule: "C=C(C)[C@@H]1CC[C@]2(C(=O)N3CCN(C)CC3)CC[C@]3(C)[C@H](CC[C@@H]4[C@@]5(C)C/C(=C/c6ccc(C(F)(F)F)cc6)C(=O)C(C)(C)[C@@H]5CC[C@]43C)[C@@H]12"
Completion: 89.8

Prompt: Recorded growth for "C=CC(=O)N[C@H](Cc1ccc(-c2cc(Cl)cc(Cl)c2)cc1)[C@H](O)[C@@H](O)C(=O)O" , please?
Completion: 75.5
